Sourced from PubChem BioAssay AID1531

target: Mitogen-activated protein kinase kinase kinase 2 (Homo sapiens) (UniProt Q9Y2U5); test: modulators of MEK5 binding to wildtype MEKK2, primary screen, biochemical, multiplex bead flow cytometry, Alexa488-MEK5 (AID 1531); settings: Alexa488-MEK5 binding to MEKK2 WT, at 10 µM, actives lie on both sides
The whole screen tested about 290,000 compounds, of which about 3,300 (1.1%) were called active. Cut-off read from the data, not from the text of the source: active = binding response below about 67% or above about 130%; inconclusive = no clear call, values can overlap the other calls; inactive = in between. Many of the other results were omitted from the sample, so actives are more common in it than they were.
A correct response names exactly one class from active, inactive

Example cases with answers are listed next.
O=C(O)CSc1nnc(-c2ccc3c(c2)OCO3)n1-c1ccccc1 = inactive
CC(=O)Nc1ccc(NC(=O)CS(=O)(=O)c2cn(CC(=O)N3CCCCC3)c3ccccc23)cc1 = inactive
O=C(Nc1nnc(C2CC2)s1)c1cc(Cl)sc1Cl = inactive
Cc1cccc(N2CCN(C(=O)COCc3cc(-c4ccc5c(c4)OCO5)on3)CC2)c1C = inactive
COc1cccc(OCC(=O)Nc2ccccc2C(N)=O)c1 = inactive

query: So what was the verdict on Cc1cccc(OCC(=O)NCC(=O)N/N=C/c2ccc(N(C)C)cc2)c1 in this test?
result: inactive

query: Another compound to look at: Cc1nc2nc[nH]n2c(=O)c1C/C=C/c1ccccc1
result: inactive

query: Another compound to look at: Cc1ccc(CN(C)CC(=O)Nc2cccc([N+](=O)[O-])c2)o1
result: inactive

====

molecular target: Mitogen-activated protein kinase kinase kinase 2 (Homo sapiens) (UniProt Q9Y2U5); assay: modulators of MEK5 binding to wildtype MEKK2, primary screen, biochemical, multiplex bead flow cytometry, Alexa488-MEK5 (AID 1531); settings: Alexa488-MEK5 binding to MEKK2 WT, at 10 µM, actives lie on both sides
Screen size: about 290,000 compounds; about 3,300 (1.1%) were called active. Rule as the data show it: active = binding response below about 67% or above about 130%; inconclusive = no clear call, values can overlap the other calls; inactive = in between. This is one part of a sample in which actives are shown more often than they occur.
A correct response names exactly one class from active, inactive

CCCc1nn(C)c2c(=O)[nH]c(-c3cc(S(N)(=O)=O)ccc3OCC)nc12 = inactive
Cc1ccc(N2C(=O)CC(N3CCSCC3)C2=O)c(C)c1 (configuration not stated) = active
CN1C(=O)C2(OCCCO2)c2cc(Cl)ccc21 = inactive

query: So what was the verdict on COc1ccc(CCn2c(NN=C3CCCC3)nc3c2c(=O)[nH]c(=O)n3C)cc1 in this test?
result: active

query: Another molecule to look at: Cc1ccc(CC2CC(=O)N(c3cc(C)ccc3C)C2=O)cc1 (configuration not stated)
result: inactive

query: Another molecule to look at: O=C(Nc1ccccc1)c1ccc2c(c1)OCCCO2
result: inactive

query: Another molecule to look at: CCN1CCN(c2ccc(S(=O)(=O)N3CCCCC3)cc2NC(=O)Cc2c(Cl)cccc2Cl)CC1
result: active

query: Another molecule to look at: CCCOc1ccc(Cl)cc1Nc1nc(NCCO)nc(N2CCCC2)n1
result: inactive

query: Another molecule to look at: O=C(NCCc1ccc(Cl)cc1Cl)c1cc([N+](=O)[O-])c[nH]c1=O
result: inactive

query: Another molecule to look at: O=C1CC(N2CCN(c3ccc(F)cc3)CC2)C(=O)N1c1ccccc1 (configuration not stated)
result: inactive

query: Another molecule to look at: CN(Cc1ccco1)S(=O)(=O)c1nnc(NC(=O)c2ccccc2)s1
result: inactive

query: Another molecule to look at: COCCN1C=C2C(=O)C(C)(OC(=O)C3CCCC3)C(=O)C=C2C=C1c1ccsc1 (configuration not stated)
result: active

query: Another molecule to look at: CCCCCc1c(C)nc(N2CCN(Cc3ccc4c(c3)OCO4)CC2)[nH]c1=O
result: inactive
